- Assayed system: Thymidylate synthase (Lactobacillus casei, UniProt P00469)
- Sequence (P00469 whole entry): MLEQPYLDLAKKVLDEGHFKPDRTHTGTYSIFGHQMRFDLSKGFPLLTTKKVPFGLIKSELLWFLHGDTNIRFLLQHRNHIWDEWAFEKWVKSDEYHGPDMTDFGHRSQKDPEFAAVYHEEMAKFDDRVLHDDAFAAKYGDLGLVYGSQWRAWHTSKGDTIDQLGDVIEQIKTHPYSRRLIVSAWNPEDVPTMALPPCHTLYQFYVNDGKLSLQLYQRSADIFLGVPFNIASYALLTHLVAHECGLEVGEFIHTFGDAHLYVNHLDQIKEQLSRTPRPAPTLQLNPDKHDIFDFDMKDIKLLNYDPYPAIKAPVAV
Recorded metric: IC50 (µM)
Hi! Could you send only the number? It should be in µM, unit omitted.

# Molecule, IC50 (µM)
data = [
    ("CN(Cc1cnc2nc(N)nc(N)c2n1)c1ccc(NC(=O)NC(CCC(=O)O)C(=O)O)cc1 (racemic)", 250),
]

Under Thymidylate synthase (Lactobacillus casei, UniProt P00469), report IC50 for CN(Cc1cnc2nc(N)nc(N)c2n1)c1ccc(NC(=O)NC(CC(=O)O)C(=O)O)cc1 (racemic)
190
